Origin of measurements: ChEMBL document CHEMBL5247643

measurementTarget: UniProt:Q9UK80
Sequence (Q9UK80 whole entry): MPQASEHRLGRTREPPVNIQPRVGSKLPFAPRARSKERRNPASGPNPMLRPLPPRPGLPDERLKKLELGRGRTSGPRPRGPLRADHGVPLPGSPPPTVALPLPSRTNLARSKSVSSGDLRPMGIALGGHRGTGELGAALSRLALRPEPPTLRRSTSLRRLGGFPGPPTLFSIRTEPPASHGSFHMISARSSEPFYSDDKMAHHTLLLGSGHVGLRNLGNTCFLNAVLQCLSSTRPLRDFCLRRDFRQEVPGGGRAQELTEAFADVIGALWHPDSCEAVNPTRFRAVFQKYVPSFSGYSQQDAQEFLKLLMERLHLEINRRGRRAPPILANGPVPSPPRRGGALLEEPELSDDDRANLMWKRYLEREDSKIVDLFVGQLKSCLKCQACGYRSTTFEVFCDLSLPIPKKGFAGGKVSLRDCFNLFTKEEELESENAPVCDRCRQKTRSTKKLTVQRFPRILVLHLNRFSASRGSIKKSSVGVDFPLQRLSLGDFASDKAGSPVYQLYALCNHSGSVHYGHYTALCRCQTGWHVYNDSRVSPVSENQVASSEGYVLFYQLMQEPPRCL
assay: Inhibition of human full length USP21 using Btn-Ahx-PNIRFLD-K(Ubi)-LPQQT-GD-amide as substrate preincubated for 15 to 20 mins followed by substrate addition and measured after 25 mins by HTRF assay
readout: IC50 (nM)
Record the value in nM, omitting the unit from your answer.

Query: Param request: IC50 | system UniProt:Q9UK80 | item `N#Cc1ccc(Cc2nnc(NC(=O)[C@H](NC(=O)C3(C(F)(F)F)CCCCC3)C3CCCC3)s2)cc1`
Reply: 12
